Listed molecules paired with reported Emax
Target: BRG-1 (Homo sapiens, UniProt P51532)
Sequence (P51532 whole entry): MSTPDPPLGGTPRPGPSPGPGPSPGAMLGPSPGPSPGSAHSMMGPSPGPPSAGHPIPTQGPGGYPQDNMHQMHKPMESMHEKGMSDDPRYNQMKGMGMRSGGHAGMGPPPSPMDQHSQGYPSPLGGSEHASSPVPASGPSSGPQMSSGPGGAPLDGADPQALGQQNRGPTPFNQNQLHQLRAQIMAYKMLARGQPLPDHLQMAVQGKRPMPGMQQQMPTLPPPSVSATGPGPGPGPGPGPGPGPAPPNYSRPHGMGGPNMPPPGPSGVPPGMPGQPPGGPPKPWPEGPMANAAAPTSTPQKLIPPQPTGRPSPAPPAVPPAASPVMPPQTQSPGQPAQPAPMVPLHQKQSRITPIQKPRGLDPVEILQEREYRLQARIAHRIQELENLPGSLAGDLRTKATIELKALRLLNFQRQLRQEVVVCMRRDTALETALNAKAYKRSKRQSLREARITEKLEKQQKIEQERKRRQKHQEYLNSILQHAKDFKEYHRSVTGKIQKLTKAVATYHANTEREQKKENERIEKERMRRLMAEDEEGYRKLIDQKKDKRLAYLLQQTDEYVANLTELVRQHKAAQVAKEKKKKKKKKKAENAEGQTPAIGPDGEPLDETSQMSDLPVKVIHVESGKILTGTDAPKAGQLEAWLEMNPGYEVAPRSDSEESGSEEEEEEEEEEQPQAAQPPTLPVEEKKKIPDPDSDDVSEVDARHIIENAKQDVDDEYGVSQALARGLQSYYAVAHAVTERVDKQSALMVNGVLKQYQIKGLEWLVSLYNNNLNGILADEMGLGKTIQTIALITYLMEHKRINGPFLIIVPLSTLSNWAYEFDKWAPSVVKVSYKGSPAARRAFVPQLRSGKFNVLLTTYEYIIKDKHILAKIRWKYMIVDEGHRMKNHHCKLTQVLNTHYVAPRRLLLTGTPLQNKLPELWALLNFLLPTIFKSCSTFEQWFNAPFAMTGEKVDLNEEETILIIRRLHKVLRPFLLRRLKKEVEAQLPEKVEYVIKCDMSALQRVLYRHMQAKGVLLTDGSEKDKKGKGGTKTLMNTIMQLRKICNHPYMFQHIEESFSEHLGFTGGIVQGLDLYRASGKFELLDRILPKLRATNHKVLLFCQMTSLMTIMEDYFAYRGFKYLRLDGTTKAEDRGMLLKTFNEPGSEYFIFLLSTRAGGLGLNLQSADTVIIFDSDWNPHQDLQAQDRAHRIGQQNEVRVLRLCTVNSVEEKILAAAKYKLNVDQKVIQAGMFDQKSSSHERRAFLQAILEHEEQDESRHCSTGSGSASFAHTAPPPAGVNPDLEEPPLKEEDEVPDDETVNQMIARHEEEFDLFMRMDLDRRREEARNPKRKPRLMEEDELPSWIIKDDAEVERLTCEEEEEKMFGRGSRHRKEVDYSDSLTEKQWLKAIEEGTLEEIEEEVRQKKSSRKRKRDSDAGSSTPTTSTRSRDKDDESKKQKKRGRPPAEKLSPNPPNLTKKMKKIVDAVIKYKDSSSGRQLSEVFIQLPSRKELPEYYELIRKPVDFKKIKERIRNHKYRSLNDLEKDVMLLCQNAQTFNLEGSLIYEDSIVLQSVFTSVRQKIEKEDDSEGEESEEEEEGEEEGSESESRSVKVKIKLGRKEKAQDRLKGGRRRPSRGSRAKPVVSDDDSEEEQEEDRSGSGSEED
Assay: ATPase catalytic activity assay (ADP-Glo), BRG-1
Settings: 1 h, read-out: BRG1 Max % Inhibition, ADP-Glo, 30 nM BRG-1, 400 μM ATP
Give your result in % as a bare value.

Previously resolved entries follow.
>  <MOLECULE>
C[C@@]1(C#N)COCc2ccc(C(=O)NCc3cc4nc(-c5cccc6c5ccn6C5CC5)ccc4cn3)cc21 [Compound 173]

>  <Emax (%)>
94

$$$$
>  <MOLECULE>
COC(C)(C)C#Cc1cccc(-c2ccc3cnc(CNC(=O)c4ccc5c(c4)[C@](C)(C#N)COC5)cc3n2)n1 [Compound 163]

>  <Emax (%)>
87

$$$$

// switching to the query molecule
Entry C[C@@]1(C#N)COCc2ccc(C(=O)NCc3cc4nc(-c5cccc(N6CCC6=O)n5)ccc4cn3)cc21 [Compound 392] , Emax reported as 95

---

Molecular target: BRG-1 (Homo sapiens)
Assay: ATPase catalytic activity assay (ADP-Glo), BRG-1
pIC50: −log10 of the molar value.
Collected pIC50 values appear next to each entry.

>  <MOLECULE>
COCCC(=O)N1CCN(c2cccc(-c3ccc4cnc(CNC(=O)c5ccc6c(c5)[C@](C)(C#N)COC6)cc4n3)n2)CC1 [Compound 288]

>  <pIC50>
6.30 to 7.00

$$$$
>  <MOLECULE>
C[C@H]1CN(c2nccc(-c3ccc4cnc(CNC(=O)c5ccc6c(c5)[C@](C)(C#N)COC6)cc4n3)n2)CCO1 [Compound 322]

>  <pIC50>
> 7.00

$$$$
>  <MOLECULE>
CNC(=O)c1ccc(-c2ccc3cnc(CNC(=O)c4ccc5c(c4)[C@](C)(F)COC5)cc3n2)cn1 [Compound 260]

>  <pIC50>
< 6.00

$$$$
>  <MOLECULE>
C[C@@]1(C#N)COCc2ccc(C(=O)NCc3cc(N4CCC5(C4)CN(c4ccccc4)C5)ccn3)cc21 [Compound 11]

>  <pIC50>
< 6.00

$$$$
>  <MOLECULE>
COCC1CN(c2cncc(-c3ccc4cnc(CNC(=O)c5ccc6c(c5)[C@](C)(C#N)COC6)cc4n3)n2)C1 [Compound 394]

>  <pIC50>
6.30 to 7.00

$$$$

Documented pIC50 of C[C@@]1(C#N)COCc2ccc(C(=O)NCc3cc4c(cn3)CCN(c3ccnc(N5CCOCC5)n3)C4)cc21 [Compound 330] : 6.00 to 6.30

Memo: C[C@@]1(C#N)COCc2ccc(C(=O)NCc3cc4nc(N5Cc6ccccc6C5=O)ccc4cn3)cc21 [Compound 303] , reported pIC50: 6.30 to 7.00

Query C[C@@]1(C#N)COCc2ccc(C(=O)NCc3cc4cc(-n5cc(F)c(N6CCC6)n5)ccc4nn3)cc21 [Compound 142] yields pIC50 of 6.30 to 7.00

// C[C@@]1(C#N)COCc2ccc(C(=O)NCc3cc4nc(-c5cncc(N6CCC6)n5)ccc4cn3)cc21 [Compound 497] : pIC50 value = > 7.00

Summary for this molecule, C[C@@]1(C#N)COCc2ccc(C(=O)NCc3cc4nc(C5CCOCC5)ccc4cn3)cc21 [Compound 107] : pIC50 is < 6.00

---

Molecular target: UniProtKB P51532
Assay: ATPase catalytic activity assay (ADP-Glo), BRG-1
Conditions: 1 h, read-out: BRG1 Max % Inhibition, ADP-Glo, 30 nM BRG-1, 400 μM ATP
// reported Emax for each item listed
Enter your answer as a number in %; do not include the unit.

>  <SMILES REPRESENTATION>
CN1CCN(c2cccc(-c3ccc4cnc(CNC(=O)c5ccc6c(c5)[C@](C)(C#N)COC6)cc4n3)c2)CC1

>  <UNIT TAG>
%

>  <Emax>
53

$$$$

Sure, the documented Emax for O=C(NCc1cc2nc(-c3ccccc3)ccc2cn1)c1ccc2c(c1)[C@@](F)(C(F)F)COC2 is 69

Entry C[C@@]1(C#N)COCc2ccc(C(=O)NCc3cc(CCc4ccccc4)ccn3)cc21 , Emax reported as 68

Values were extracted from patent US12441726B2.
